Sourced from patent US20090325920A1

assay: clinical; conditions: male, human, in vivo, CL
READOUT TYPE: clearance (mL/min/kg)
Report the value in mL/min/kg with no unit label.

Field request: clearance | item: CC(=O)[C@H]1CC[C@H]2[C@@H]3CCC4=CC(=O)CC[C@]4(C)[C@H]3CC[C@]12C [progesterone, pregn-4-ene-3,20-dione] 27.7

###

assay: clinical; settings: female, human, in vivo, CL
READOUT TYPE: clearance (mL/min/kg)
Report the value in mL/min/kg with no unit label.

Field request: clearance | item: "CC(=O)[C@H]1CC[C@H]2[C@@H]3CCC4=CC(=O)CC[C@]4(C)[C@H]3CC[C@]12C" 31.3
